Field: pIC50. Provide a value for each of the molecules that follow.
Molecular target: NRAS G12C (Homo sapiens (Human), UniProt P01111+P62937, G12C)
Sequence (P01111 whole entry G12C): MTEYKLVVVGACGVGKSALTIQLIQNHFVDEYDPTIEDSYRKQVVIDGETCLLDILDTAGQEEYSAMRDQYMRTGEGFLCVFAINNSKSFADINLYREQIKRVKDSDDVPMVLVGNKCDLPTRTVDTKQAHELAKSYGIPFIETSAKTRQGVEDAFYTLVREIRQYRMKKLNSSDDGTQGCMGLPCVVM
Sequence (P62937 whole entry): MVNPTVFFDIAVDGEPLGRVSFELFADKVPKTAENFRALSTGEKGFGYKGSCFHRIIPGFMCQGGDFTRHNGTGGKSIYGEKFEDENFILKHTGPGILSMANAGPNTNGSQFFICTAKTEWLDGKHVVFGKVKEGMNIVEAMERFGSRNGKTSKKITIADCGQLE
Assay: Ras-Raf (BRAF RBD) disruption / FRET / MOA assay, NRAS G12C
Format: biochemical
Conditions: read-out: IC50* NRAS G12C FRET data
pIC50: −log10 of the molar value.

# pIC50 lookup, item CCn1c(-c2cccnc2[C@H](C)OC)c2c3cc(ccc31)-c1csc(n1)C[C@H](NC(=O)CCOC1CN(C(=O)C#CC(C)(C)N3CCC3)C1)C(=O)N1CCC[C@H](N1)C(=O)OCC(C)(C)C2 (atropisomer, axis not shown)
7.00 to 8.00

What do you have for C=CC(=O)N1CC[C@H](C(=O)N(C)[C@H](C(=O)N[C@H]2Cc3cc(OC4O[C@H](CO)[C@@H](O)[C@H](O)[C@H]4O)cc(c3)-c3ccc4c(c3)c(c(-c3cccnc3COC)n4CC)CC(C)(C)COC(=O)[C@@H]3CCCN(N3)C2=O)C(C)C)C1 (stereo partly drawn) ?
< 5.00

What do you have for C=CC(=O)N1CCC(F)(C(=O)N(C)[C@H](C(=O)N[C@H]2Cc3cccc(c3)-c3ccc4c(c3)c(c(-c3cccnc3[C@H](C)OC)n4CC)CC(C)(C)COC(=O)[C@@H]3CCCN(N3)C2=O)C(C)C)CC1 (atropisomer, axis not shown) ?
7.00 to 8.00

What do you have for C=CC(=O)N1C[C@@H](C)N(C(=O)N(C)[C@H](C(=O)N[C@H]2Cc3nc(cs3)-c3ccc4c(c3)c(c(-c3cccnc3[C@H](C)OC)n4CC)CC(C)(C)COC(=O)[C@@H]3CCCN(N3)C2=O)C(C)C)[C@H](C)C1 (atropisomer, axis not shown) ?
> 8.00

What do you have for C=CC(=O)N1CC(OCC(C(=O)N[C@H]2Cc3cc(cc(C(F)F)c3)-c3ccc4c(c3)c(c(-c3cccnc3[C@H](C)OC)n4CC)CC(C)(C)COC(=O)[C@@H]3CCCN(N3)C2=O)C(C)C)C1 (mixture of isomers) ?
< 5.00

What do you have for C=CC(=O)N1CC[C@H](C(=O)N(C)[C@H](C(=O)NC2C[C@@H]3CN(CCO3)c3ccc4c(c3)c(c(-c3cccnc3[C@H](C)OC)n4CC)CC(C)(C)COC(=O)[C@@H]3CCCN(N3)C2=O)C(C)C)C1 (stereo partly drawn) ?
< 5.00

What do you have for C=CC(=O)N1CCO[C@H]2CN(C(=O)N(C)[C@H](C(=O)N[C@H]3Cc4cccc(c4)-c4ccc5c(c4)c(c(-c4cccnc4[C@H](C)OC)n5CC)CC(C)(C)COC(=O)[C@@H]4CCCN(N4)C3=O)C(C)C)C[C@H]21 (atropisomer, axis not shown) ?
7.00 to 8.00

What do you have for `C=CC(=O)N1CC[C@H](C(=O)N(C)[C@H](C(=O)N[C@H]2Cc3cc(O)cc(c3)-c3ccc4c(c3)c(c(-c3cc(N5CC(OC)C5)ccn3)n4CC)CC(C)(C)COC(=O)[C@@H]3CCCN(N3)C2=O)C(C)C)C1` ?
7.00 to 8.00

What do you have for C=CC(=O)N1CCC12CN(C(=O)N(C)[C@H](C(=O)N[C@H]1Cc3nc(cs3)-c3ccc4c(c3)c(c(-c3cccnc3[C@H](C)OC)n4CC)CC(C)(C)COC(=O)[C@@H]3CCCN(N3)C1=O)C(C)C)C2 (atropisomer, axis not shown) ?
6.00 to 7.00

What do you have for C=CC(=O)N1CCN(C(=O)N(C)[C@H](C(=O)N[C@H]2Cc3nc(cs3)-c3ccc4c(c3)c(c(-c3cccnc3[C@H](C)OC)n4CC)CC(C)(C)COC(=O)[C@@H]3CCCN(N3)C2=O)C(C)C)CC1 (atropisomer, axis not shown) ?
7.00 to 8.00

What do you have for CCn1c(-c2cccnc2[C@H](C)OC)c2c3cc(ccc31)N1CCO[C@@H](C[C@H](NC(=O)[C@@H](COC3CN(C(=O)C#CC(C)(C)N(C)C)C3)C(C)C)C(=O)N3CCC[C@H](N3)C(=O)OCC(C)(C)C2)C1 (atropisomer, axis not shown) ?
> 8.00

What do you have for C=CC(=O)N1CC[C@]2(CCN(C(=O)N(C)[C@H](C(=O)N[C@H]3Cc4nc(cs4)-c4ccc5c(c4)c(c(-c4cccnc4[C@H](C)OC)n5CC)CC(C)(C)COC(=O)[C@@H]4CCCN(N4)C3=O)C(C)C)C2)C1 (atropisomer, axis not shown) ?
7.00 to 8.00

What do you have for `C=CC(=O)N1CC[C@H](C(=O)N(C)[C@H](C(=O)N[C@@H]2C(=O)N3CCC[C@H](N3)C(=O)OCC(C)(C)Cc3c(-c4cncnc4)n(CC)c4ccc(cc34)-c3cccc(c3)[C@@H]2OC)C(C)C)C1` ?
< 5.00

What do you have for C=CC(=O)N1CCC2(CCCN(C(=O)N(C)[C@H](C(=O)N[C@H]3Cc4nc(cs4)-c4ccc5c(c4)c(c(-c4cccnc4[C@H](C)OC)n5CC)CC(C)(C)COC(=O)[C@@H]4CCCN(N4)C3=O)C(C)C)C2)CC1 (atropisomer, axis not shown) ?
6.00 to 7.00

What do you have for CCn1c(-c2cccnc2[C@H](C)OC)c2c3cc(ccc31)-c1csc(n1)C[C@H](NC(=O)[C@H](C(C)C)N(C)C(=O)N1CCC3(CC1)CN(C(=O)/C=C/CF)C3)C(=O)N1CCC[C@H](N1)C(=O)OCC(C)(C)C2 (atropisomer, axis not shown) ?
7.00 to 8.00

* * *

Field: pIC50. Provide a value for each of the compounds that follow.
Target: NRAS WT (Homo sapiens (Human), UniProt P01111+P62937)
Sequence (P01111 whole entry, one chain of several): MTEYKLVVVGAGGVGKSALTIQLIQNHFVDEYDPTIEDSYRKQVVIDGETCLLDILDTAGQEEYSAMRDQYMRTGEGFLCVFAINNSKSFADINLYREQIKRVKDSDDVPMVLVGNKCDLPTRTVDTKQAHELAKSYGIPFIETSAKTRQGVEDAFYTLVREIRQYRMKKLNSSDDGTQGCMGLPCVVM
Test: Ras-Raf (BRAF RBD) disruption / FRET / MOA assay, NRAS WT
Format: biochemical
Conditions: read-out: IC50* NRAS WT FRET data
pIC50: −log10 of the molar value.

# pIC50 lookup, item `C=CC(=O)N1CC[C@H](C(=O)N(C)[C@H](C(=O)N[C@H]2Cc3cc(O)cc(c3)-c3ccc4c(c3)c(c(-c3cncc5c3[C@@H](OC)CC5)n4CC)CC(C)(C)COC(=O)[C@@H]3CCCN(N3)C2=O)C(C)C)C1`
7.00 to 8.00

What do you have for CCn1c(-c2cccnc2[C@H](C)OC)c2c3cc(ccc31)N1CCO[C@@H](C[C@H](NC(=O)[C@@H](COC3CN(C(=O)C#CC(C)(C)N(C)C)C3)C(C)C)C(=O)N3CCC[C@H](N3)C(=O)OCC(C)(C)C2)C1 (atropisomer, axis not shown) ?
< 5.00

What do you have for CCn1c(-c2cccnc2[C@H](C)OC)c2c3cc(ccc31)-c1csc(n1)C[C@H](NC(=O)[C@H](C(C)C)N(C)C(=O)N1CCC13CN(C(=O)/C=C/CN(C)C)C3)C(=O)N1CCC[C@H](N1)C(=O)OCC(C)(C)C2 (atropisomer, axis not shown) ?
7.00 to 8.00

What do you have for CCn1c(-c2cccnc2[C@H](C)OC)c2c3cc(ccc31)-c1csc(n1)C[C@H](NC(=O)CN1CC[C@@]3(CCN(C(=O)C#CC(C)(C)N4CCC4)C3)C1)C(=O)N1CCC[C@H](N1)C(=O)OCC(C)(C)C2 (atropisomer, axis not shown) ?
5.00 to 6.00

* * *

Field: IC50. Provide a value for each of the compounds that follow.
Test system: NCI-H358 (K-Ras G12C)
Test: CellTiter-Glo cell viability assay, NCI-H358
Format: cell-based, human
Settings: Homo sapiens, NCI-H358, 120 h, NCI-H358, 5-day treatment; class symbols; read-out: Additional H358 Cell Viability assay data (K-Ras G12C, IC50)

# IC50 lookup, item `CCn1c(-c2cccnc2[C@H](C)OC)c2c3cc(ccc31)N1CCO[C@@](C)(C[C@H](NC(=O)[C@H](C(C)C)N(C)C(=O)C3(F)CCN(C(=O)C#CC(C)(C)N(C)C)CC3)C(=O)N3CCC[C@H](N3)C(=O)OCC(C)(C)C2)C1`
< 10 nM

What do you have for C=CC(=O)N1CC(OCC(C(=O)N[C@H]2Cc3cccc(c3)-c3ccc4c(c3)c(c(-c3cccnc3[C@H](C)OC)n4CC)CC(C)(C)COC(=O)[C@@H]3CCCN(N3)C2=O)C(C)C)C1 (some centres unmarked) ?
< 10 nM

What do you have for C=CC(=O)N1CC[C@H](C(=O)N(C)[C@H](C(=O)N[C@H]2Cc3cccc(c3)-c3ccc4c(c3)c(c(-c3cc(CN(C)C)cnc3[C@H](C)OC)n4CC)CC(C)(C)COC(=O)[C@@H]3CCCN(N3)C2=O)C(C)C)C1 (atropisomer, axis not shown) ?
< 10 nM

What do you have for C=CC(=O)N1CC(C(=O)N(C)[C@H](C(=O)N[C@H]2Cc3cc(O)cc(c3)-c3ccc4c(c3)c(c(-c3cccnc3[C@H](C)OC)n4CC)CC(C)(C)COC(=O)[C@@H]3CCCN(N3)C2=O)C(C)C)C1 (atropisomer, axis not shown) ?
< 10 nM

What do you have for CCn1c(-c2cccnc2[C@H](C)OC)c2c3cc(ccc31)-c1csc(n1)C[C@H](NC(=O)C[C@H](C)OC1CN(C(=O)C#CC(C)(C)N(C)C)C1)C(=O)N1CCC[C@H](N1)C(=O)OCC(C)(C)C2 (atropisomer, axis not shown) ?
10 to 100 nM

What do you have for `C=CC(=O)N1CC[C@H](C(=O)N(C)[C@H](C(=O)N[C@H]2Cc3cc(O)cc(c3)-c3ccc4c(c3)c(c(-c3ccc5cc(CN(C)C)n(C)c5c3)n4CC)CC(C)(C)COC(=O)[C@@H]3CCCN(N3)C2=O)C(C)C)C1` ?
10 to 100 nM

What do you have for C=CC(=O)N1CCN(C(=O)N(C)[C@H](C(=O)N[C@H]2Cc3cc(O)cc(c3)-c3ccc4c(c3)c(c(-c3cccnc3[C@H](C)OC)n4CC)CC(C)(C)COC(=O)[C@@H]3CCCN(N3)C2=O)C(C)C)CC1 (atropisomer, axis not shown) ?
10 to 100 nM

What do you have for C=CC(=O)N1CCN(C(=O)N(C)[C@H](C(=O)N[C@H]2Cc3nc(cs3)-c3ccc4c(c3)c(c(-c3cccnc3[C@H](C)OC)n4CC)CC(C)(C)COC(=O)[C@@H]3CCCN(N3)C2=O)C(C)C)[C@@H](C)C1 (atropisomer, axis not shown) ?
10 to 100 nM

What do you have for CCn1c(-c2cccnc2[C@H](C)OC)c2c3cc(ccc31)-c1csc(n1)C[C@H](NC(=O)[C@H](C(C)C)N1CC[C@@]3(CCN(C(=O)C#CC(C)(C)N(C)C)C3)C1=O)C(=O)N1CCC[C@H](N1)C(=O)OCC(C)(C)C2 (single isomer, unassigned) ?
< 10 nM

What do you have for C=CC(=O)N1CC2(COCCN2C(=O)N(C)[C@H](C(=O)N[C@H]2Cc3nc(cs3)-c3ccc4c(c3)c(c(-c3cccnc3[C@H](C)OC)n4CC)CC(C)(C)COC(=O)[C@@H]3CCCN(N3)C2=O)C(C)C)C1 (atropisomer, axis not shown) ?
< 10 nM

What do you have for C=CC(=O)N1CC[C@]2(CCN2C(=O)N(C)[C@H](C(=O)N[C@H]2Cc3nc(cs3)-c3ccc4c(c3)c(c(-c3cccnc3[C@H](C)OC)n4CC)CC(C)(C)COC(=O)[C@@H]3CCCN(N3)C2=O)C(C)C)C1 (atropisomer, axis not shown) ?
10 to 100 nM

What do you have for C=C(OC)C(=O)N1CC(N(C)C(=O)N(C)[C@H](C(=O)N[C@H]2Cc3nc(cs3)-c3ccc4c(c3)c(c(-c3cccnc3[C@H](C)OC)n4CC)CC(C)(C)COC(=O)[C@@H]3CCCN(N3)C2=O)C(C)C)C1 (atropisomer, axis not shown) ?
10 to 100 nM

What do you have for `C=CC(=O)N1CC[C@H](C(=O)N(C)[C@H](C(=O)N[C@H]2Cc3cc(O)cc(c3)-c3ccc4c(c3)c(c(-c3cccc5c3COC5)n4CC)CC(C)(C)COC(=O)[C@@H]3CCCN(N3)C2=O)C(C)C)C1` ?
100 to 1000 nM

What do you have for `C=CC(=O)N1CC[C@H](C(=O)N(C)[C@H](C(=O)N[C@H]2Cc3cc(O)cc(c3)-c3ccc4nc(-c5cccnc5COC)c(n4c3)CC(C)(C)COC(=O)[C@@H]3CCCN(N3)C2=O)C(C)C)C1` ?
> 1000 nM
